Molecular target: 5HT3A receptor (Mus musculus, UniProt P23979)
Construct: Transient expression of the full wild-type receptor was achieved by co-transfection; expressed in transfected cells; host or cells: HEK293
Experiment: competitive radiological binding assay with [3H]-GR65630, receptor in "native" vesicles in solution
READOUT_TYPE: Ki (nM)
Express your answer in nM, writing the number without its unit.

COMPOUND | Ki, nM
Cc1[nH]cnc1CC1CCc2c(c3ccccc3n2CCCN)C1=O (centres unmarked) [GR-H] | 0.2

Now look at this one.
Tell me measured Ki for Cc1nccn1CC1CCc2c(c3ccccc3n2C)C1=O (centres unmarked) [Ondansetron] please.
2.51

###

Molecular target: 5HT3A receptor (Mus musculus)
Construct: Transient expression of the full wild-type receptor was achieved by co-transfection; expressed in transfected cells; host or cells: HEK293
Sequence (P23979 24-489): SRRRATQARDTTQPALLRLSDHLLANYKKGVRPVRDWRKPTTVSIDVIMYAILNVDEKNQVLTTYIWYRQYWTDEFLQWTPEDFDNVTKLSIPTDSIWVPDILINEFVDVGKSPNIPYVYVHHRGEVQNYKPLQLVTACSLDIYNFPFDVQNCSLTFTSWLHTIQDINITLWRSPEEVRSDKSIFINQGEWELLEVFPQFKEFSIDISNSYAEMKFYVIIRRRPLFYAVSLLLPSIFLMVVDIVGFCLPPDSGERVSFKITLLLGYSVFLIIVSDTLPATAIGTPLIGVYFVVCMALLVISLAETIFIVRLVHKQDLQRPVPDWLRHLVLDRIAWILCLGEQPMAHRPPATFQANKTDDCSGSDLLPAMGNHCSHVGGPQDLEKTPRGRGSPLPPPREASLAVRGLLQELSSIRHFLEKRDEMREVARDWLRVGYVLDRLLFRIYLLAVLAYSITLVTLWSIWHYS
Assay: competitive radiological binding assay with [3H]-GR65630, receptor in whole mother cells
Property: Ki; scope: individual compounds
Field format: number, assumed nM, no unit text.

COMPOUND | Ki (nM)
Cc1nccn1CC1CCc2c(c3ccccc3n2C)C1=O (centres unmarked) | 3.16

Alright, here's another compound for you.
Give Ki for this entry on 5HT3A receptor (Mus musculus): Cc1[nH]cnc1CC1CCc2c(c3ccccc3n2CCCN)C1=O (centres unmarked)
0.0631
